Recorded measurements of Activity, one per entry
target: Aurora kinase A (Homo sapiens) (UniProt O14965); test: Inhibition of purified recombinant full-length Aurora A (unknown origin) assessed as residual enzyme activity at 2 mM using kemptide analogue substrate and 5 mM ATP in presence of TPX2 (1 to 43 residues)
Write the number in % without appending the unit.

Some entries whose results are on file:
compound	unitTag	Activity
CCN1/C(=C/C=C/C2=[N+](CC)c3ccc(S(=O)(=O)O)cc3C2(C)C)C(C)(CCCC(=O)NCCCC[C@@H](NC(=O)[C@@H](CCCNC(=N)N)NC(=O)[C@@H](CCCNC(=N)N)NC(=O)[C@@H](CCCNC(=N)N)NC(=O)[C@@H](CCCNC(=N)N)NC(=O)[C@@H](CCCNC(=N)N)NC(=O)[C@@H](CCCNC(=N)N)NC(=O)[C@H](Cc2ccc(C(=O)c3ccccc3)cc2)NC(=O)[C@H](Cc2ccc(C(=O)c3ccccc3)cc2)NC(=O)CCCNC(=O)[C@]2(Cc3cccc(Nc4nccs4)n3)CC[C@@H](Oc3cccc(Cl)c3F)CC2)C(N)=O)c2cc(S(=O)(=O)O)ccc21 (stereo partly drawn)	%	100
CN(C)c1ccc2c(-c3ccc(C(=O)NCCCC[C@H](NC(=O)[C@H](Cc4ccc(C(=O)c5ccccc5)cc4)NC(=O)[C@H](Cc4ccc(C(=O)c5ccccc5)cc4)NC(=O)CCCNC(=O)[C@]4(Cc5cccc(Nc6nccs6)n5)CC[C@@H](Oc5cccc(Cl)c5F)CC4)C(N)=O)cc3C(=O)O)c3ccc(=[N+](C)C)cc-3oc2c1	%	100

query: Entry under review: `O=C(O)[C@]1(Cc2cccc(Nc3nccs3)n2)CC[C@@H](Oc2cccc(Cl)c2F)CC1` . Reported Activity?
result: 67

###

Target: Aurora kinase A (Homo sapiens) (UniProt O14965)
Sequence (whole entry): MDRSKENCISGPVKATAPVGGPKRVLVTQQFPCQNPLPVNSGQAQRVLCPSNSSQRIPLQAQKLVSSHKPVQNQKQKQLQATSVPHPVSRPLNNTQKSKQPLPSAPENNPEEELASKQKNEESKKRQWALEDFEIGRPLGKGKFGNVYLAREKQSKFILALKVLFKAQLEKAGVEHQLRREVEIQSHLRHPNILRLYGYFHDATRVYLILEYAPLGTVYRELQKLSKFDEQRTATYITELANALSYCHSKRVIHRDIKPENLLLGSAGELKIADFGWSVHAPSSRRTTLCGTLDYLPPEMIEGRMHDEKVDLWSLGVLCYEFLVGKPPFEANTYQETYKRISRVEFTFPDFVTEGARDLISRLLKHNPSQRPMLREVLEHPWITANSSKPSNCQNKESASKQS
Experiment: Binding affinity to Aurora A in human HeLa cells assessed as covalent irreversible complex formation at 1 uM irradiated for 15 mins with near-UV light in presence of Aurora A inhibitor MLN8237 by SDS-PAGE and Western blot method
Assay type: cell-based
Activity calls are given as the source filed them. The calls are words filed in the database; no cut-off is given here.
Entry note: the call must match one of 1 for active, 0 for inactive

For orientation, consider the following solved cases.
molecule	qualitativeLabel
CN(C)c1ccc2c(-c3ccc(C(=O)NCCCC[C@H](NC(=O)[C@H](Cc4ccc(C(=O)c5ccccc5)cc4)NC(=O)[C@H](Cc4ccc(C(=O)c5ccccc5)cc4)NC(=O)CCCNC(=O)[C@]4(Cc5cccc(Nc6nccs6)n5)CC[C@@H](Oc5cccc(Cl)c5F)CC4)C(N)=O)cc3C(=O)O)c3ccc(=[N+](C)C)cc-3oc2c1	1
CCN1/C(=C/C=C/C2=[N+](CC)c3ccc(S(=O)(=O)O)cc3C2(C)C)C(C)(CCCC(=O)NCCCC[C@@H](NC(=O)[C@@H](CCCNC(=N)N)NC(=O)[C@@H](CCCNC(=N)N)NC(=O)[C@@H](CCCNC(=N)N)NC(=O)[C@@H](CCCNC(=N)N)NC(=O)[C@@H](CCCNC(=N)N)NC(=O)[C@@H](CCCNC(=N)N)NC(=O)[C@H](Cc2ccc(N=[N+]=[N-])cc2)NC(=O)[C@H](Cc2ccc(N=[N+]=[N-])cc2)NC(=O)CCNC(=O)[C@]2(Cc3cccc(Nc4nccs4)n3)CC[C@@H](Oc3cccc(Cl)c3F)CC2)C(N)=O)c2cc(S(=O)(=O)O)ccc21 (stereo partly drawn)	0

Now, please, on to the next molecule.
query: Outcome logged for `CN(C)c1ccc2c(-c3ccc(C(=O)NCCCC[C@H](NC(=O)[C@H](Cc4ccc(N=[N+]=[N-])cc4)NC(=O)[C@H](Cc4ccc(N=[N+]=[N-])cc4)NC(=O)CCCNC(=O)[C@]4(Cc5cccc(Nc6nccs6)n5)CC[C@@H](Oc5cccc(Cl)c5F)CC4)C(N)=O)cc3C(=O)O)c3ccc(=[N+](C)C)cc-3oc2c1` in this assay:
result: 1

###

target: Aurora kinase A (Homo sapiens); experiment: Binding affinity to 1 uM and >100 uM VX689-prre-treated purified recombinant full-length Aurora A (unknown origin) assessed as covalent irreversible complex formation at 1 uM irradiated for 15 mins with near-UV light by SDS-PAGE and Western blot method
Active and inactive are the calls of the source. The calls are words filed in the database; no cut-off is given here.
reportedProperty: Activity

molecule	reportedProperty	endpointResult
CN(C)c1ccc2c(-c3ccc(C(=O)NCCCC[C@H](NC(=O)[C@H](Cc4ccc(N=[N+]=[N-])cc4)NC(=O)[C@H](Cc4ccc(N=[N+]=[N-])cc4)NC(=O)CCCNC(=O)[C@]4(Cc5cccc(Nc6nccs6)n5)CC[C@@H](Oc5cccc(Cl)c5F)CC4)C(N)=O)cc3C(=O)O)c3ccc(=[N+](C)C)cc-3oc2c1	Activity	inactive
CCN1/C(=C/C=C/C2=[N+](CC)c3ccc(S(=O)(=O)O)cc3C2(C)C)C(C)(CCCC(=O)NCCCC[C@@H](NC(=O)[C@H](CCCNC(=N)N)NC(=O)[C@H](CCCNC(=N)N)NC(=O)[C@H](CCCNC(=N)N)NC(=O)[C@H](CCCNC(=N)N)NC(=O)[C@H](CCCNC(=N)N)NC(=O)[C@H](CCCNC(=N)N)NC(=O)[C@@H](Cc2ccc(N=[N+]=[N-])cc2)NC(=O)[C@@H](Cc2ccc(N=[N+]=[N-])cc2)NC(=O)CCNC(=O)[C@]2(Cc3cccc(Nc4nccs4)n3)CC[C@@H](Oc3cccc(Cl)c3F)CC2)C(N)=O)c2cc(S(=O)(=O)O)ccc21 (stereo partly drawn)	Activity	inactive
CCN1/C(=C/C=C/C2=[N+](CC)c3ccc(S(=O)(=O)O)cc3C2(C)C)C(C)(CCCC(=O)NCCCC[C@@H](NC(=O)[C@@H](CCCNC(=N)N)NC(=O)[C@@H](CCCNC(=N)N)NC(=O)[C@@H](CCCNC(=N)N)NC(=O)[C@@H](CCCNC(=N)N)NC(=O)[C@@H](CCCNC(=N)N)NC(=O)[C@@H](CCCNC(=N)N)NC(=O)[C@H](Cc2ccc(N=[N+]=[N-])cc2)NC(=O)[C@H](Cc2ccc(N=[N+]=[N-])cc2)NC(=O)CCNC(=O)[C@]2(Cc3cccc(Nc4nccs4)n3)CC[C@@H](Oc3cccc(Cl)c3F)CC2)C(N)=O)c2cc(S(=O)(=O)O)ccc21 (stereo partly drawn)	Activity	inactive

###

target: UniProtKB O14965; assay: Binding affinity to purified recombinant full-length Aurora A (unknown origin) by fluorescence polarisation/anisotropy based equilibrium binding assay
reportedProperty: Kd (nM)
Write the number in nM without appending the unit.

query: Record CCN1/C(=C/C=C/C2=[N+](CC)c3ccc(S(=O)(=O)O)cc3C2(C)C)C(C)(CCCC(=O)NCCCC[C@@H](NC(=O)[C@@H](CCCNC(=N)N)NC(=O)[C@@H](CCCNC(=N)N)NC(=O)[C@@H](CCCNC(=N)N)NC(=O)[C@@H](CCCNC(=N)N)NC(=O)[C@@H](CCCNC(=N)N)NC(=O)[C@@H](CCCNC(=N)N)NC(=O)[C@H](Cc2ccc(C(=O)c3ccccc3)cc2)NC(=O)[C@H](Cc2ccc(C(=O)c3ccccc3)cc2)NC(=O)CCCNC(=O)[C@]2(Cc3cccc(Nc4nccs4)n3)CC[C@@H](Oc3cccc(Cl)c3F)CC2)C(N)=O)c2cc(S(=O)(=O)O)ccc21 (stereo partly specified) : what is its Kd with UniProtKB O14965?
result: 9.1

###

Target: Aurora kinase A (Homo sapiens) (UniProt O14965)
Sequence (whole entry): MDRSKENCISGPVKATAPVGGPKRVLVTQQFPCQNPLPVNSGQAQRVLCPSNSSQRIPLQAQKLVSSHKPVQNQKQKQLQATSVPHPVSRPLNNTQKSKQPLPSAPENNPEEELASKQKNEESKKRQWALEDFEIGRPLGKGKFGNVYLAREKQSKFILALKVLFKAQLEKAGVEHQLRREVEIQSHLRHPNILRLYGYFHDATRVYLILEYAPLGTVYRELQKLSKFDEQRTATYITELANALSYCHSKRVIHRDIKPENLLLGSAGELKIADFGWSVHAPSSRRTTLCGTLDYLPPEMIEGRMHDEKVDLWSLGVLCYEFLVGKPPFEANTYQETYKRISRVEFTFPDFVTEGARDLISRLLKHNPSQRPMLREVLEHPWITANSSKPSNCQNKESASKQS
Assay: Binding affinity to purified recombinant full-length Aurora A (unknown origin) assessed as covalent irreversible complex formation at 2.4 uM irradiated for 15 mins with near-UV light by SDS-PAGE and Western blot method
Doc: threshold 20% (exclusive). Items with Activity beneath it return fulfilled; others return not fulfilled.

query: Consider the molecule CCN1/C(=C/C=C/C2=[N+](CC)c3ccc(S(=O)(=O)O)cc3C2(C)C)C(C)(CCCC(=O)NCCCC[C@@H](NC(=O)[C@H](CCCNC(=N)N)NC(=O)[C@H](CCCNC(=N)N)NC(=O)[C@H](CCCNC(=N)N)NC(=O)[C@H](CCCNC(=N)N)NC(=O)[C@H](CCCNC(=N)N)NC(=O)[C@H](CCCNC(=N)N)NC(=O)[C@H](Cc2ccc(C(=O)c3ccccc3)cc2)NC(=O)[C@H](Cc2ccc(C(=O)c3ccccc3)cc2)NC(=O)CCCNC(=O)[C@]2(Cc3cccc(Nc4nccs4)n3)CC[C@@H](Oc3cccc(Cl)c3F)CC2)C(N)=O)c2cc(S(=O)(=O)O)ccc21 (stereo partly specified) . Is its Activity strictly less than 20%?
result: fulfilled

query: Consider the molecule CCN1/C(=C/C=C/C2=[N+](CC)c3ccc(S(=O)(=O)O)cc3C2(C)C)C(C)(CCCC(=O)NCCCC[C@@H](NC(=O)[C@@H](CCCNC(=N)N)NC(=O)[C@@H](CCCNC(=N)N)NC(=O)[C@@H](CCCNC(=N)N)NC(=O)[C@@H](CCCNC(=N)N)NC(=O)[C@@H](CCCNC(=N)N)NC(=O)[C@@H](CCCNC(=N)N)NC(=O)[C@H](Cc2ccc(C(=O)c3ccccc3)cc2)NC(=O)[C@H](Cc2ccc(C(=O)c3ccccc3)cc2)NC(=O)CCCNC(=O)[C@]2(Cc3cccc(Nc4nccs4)n3)CC[C@@H](Oc3cccc(Cl)c3F)CC2)C(N)=O)c2cc(S(=O)(=O)O)ccc21 (stereo partly specified) . Is its Activity strictly less than 20%?
result: fulfilled
